Source listed as patent US20250034216A1.

Test target: PRXL2A_C88 (Homo sapiens, UniProt Q9BRX8)
Construct: endogenous in cells; host or cells: 22Rv1
Sequence (Q9BRX8 whole entry): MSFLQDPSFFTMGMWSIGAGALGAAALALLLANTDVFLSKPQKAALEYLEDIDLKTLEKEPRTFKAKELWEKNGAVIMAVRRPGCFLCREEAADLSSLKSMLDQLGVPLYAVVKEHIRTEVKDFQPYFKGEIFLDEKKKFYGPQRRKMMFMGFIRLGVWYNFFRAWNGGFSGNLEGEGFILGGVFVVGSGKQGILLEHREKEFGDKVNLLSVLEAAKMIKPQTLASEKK
Method description: IA-DTB cysteine engagement
Format: binding
Cond: 22Rv1 cells, 20 μM probe, 1 h, relative to DMSO
Experimental: Sample preparation: Cells (adherent: 15 cm dishes, suspension: 2 million cells/mL) were treated with electrophilic probes in situ for indicated times and concentrations, washed with ice-cold PBS, and flash frozen in liquid nitrogen. […] Whole cell lysates protein content was measured using a standard DC protein assay (Bio-Rad) and 500 μL (2 mg/mL protein content) were treated with 5 μL of 10 mM 1A-DTB (in DMSO) for 1 h at ambient temperature with occasional vortexing. […]
Endpoint name: % engagement PRXL2A_C88 (%)

1) C=CC(=O)N1C[C@H](c2ccc(Br)cc2)[C@H]1C(=O)Nc1cccc2cccnc12 [MY-3B] = 97.25
2) C=CC(=O)N1C[C@H](c2ccc(Br)cc2)[C@@H]1C(=O)Nc1cccc2cccnc12 [MY-1B] = 97.25
3) C=CC(=O)N1C[C@@H](c2ccc(Br)cc2)[C@H]1C(=O)Nc1cccc2cccnc12 [MY-1A] = 96.25
4) C=CC(=O)N1C[C@H](c2ccc(Br)cc2)[C@H]1C(=O)Nc1cccc2cccnc12 [MY-3A] = 95

====

Test target: MMS19_C819 (Homo sapiens, UniProt Q96T76)
Construct: endogenous in cells; host or cells: 22Rv1
Sequence (Q96T76 whole entry): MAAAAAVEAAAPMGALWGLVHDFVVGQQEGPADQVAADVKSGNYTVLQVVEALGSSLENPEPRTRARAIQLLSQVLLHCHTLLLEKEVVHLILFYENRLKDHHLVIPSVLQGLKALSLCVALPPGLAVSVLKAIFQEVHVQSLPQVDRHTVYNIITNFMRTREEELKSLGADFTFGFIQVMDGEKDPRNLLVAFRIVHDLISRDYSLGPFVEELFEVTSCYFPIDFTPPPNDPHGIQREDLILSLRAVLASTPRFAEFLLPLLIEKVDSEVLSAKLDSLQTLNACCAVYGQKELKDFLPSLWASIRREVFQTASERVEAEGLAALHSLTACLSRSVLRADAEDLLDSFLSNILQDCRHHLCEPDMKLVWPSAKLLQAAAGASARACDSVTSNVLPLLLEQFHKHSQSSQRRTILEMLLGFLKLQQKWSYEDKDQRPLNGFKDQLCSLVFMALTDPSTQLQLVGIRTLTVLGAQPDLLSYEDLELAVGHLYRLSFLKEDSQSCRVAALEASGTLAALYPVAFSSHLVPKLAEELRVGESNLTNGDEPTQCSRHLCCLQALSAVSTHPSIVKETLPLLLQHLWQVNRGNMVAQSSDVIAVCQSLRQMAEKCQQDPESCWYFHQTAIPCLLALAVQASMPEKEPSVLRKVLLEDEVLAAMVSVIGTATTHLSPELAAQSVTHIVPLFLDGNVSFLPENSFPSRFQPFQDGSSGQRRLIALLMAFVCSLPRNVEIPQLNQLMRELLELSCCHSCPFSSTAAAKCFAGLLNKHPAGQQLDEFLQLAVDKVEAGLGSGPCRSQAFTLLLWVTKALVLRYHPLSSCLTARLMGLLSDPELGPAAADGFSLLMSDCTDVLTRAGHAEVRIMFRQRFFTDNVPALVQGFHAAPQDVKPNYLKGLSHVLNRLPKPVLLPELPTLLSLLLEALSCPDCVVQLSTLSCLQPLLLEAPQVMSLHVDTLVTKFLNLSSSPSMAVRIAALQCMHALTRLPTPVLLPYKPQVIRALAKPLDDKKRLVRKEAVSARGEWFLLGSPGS
Method description: IA-DTB cysteine engagement
Assay type: binding
Cond: 22Rv1 cells, 20 μM probe, 1 h, relative to DMSO
Endpoint name: % engagement MMS19_C819 (%)

[I] C=CC(=O)N1C[C@@H](c2ccc(Br)cc2)[C@H]1C(=O)Nc1cccc2cccnc12
[II] C=CC(=O)N1C[C@H](c2ccc(Br)cc2)[C@H]1C(=O)Nc1cccc2cccnc12 [MY-3A]
[III] C=CC(=O)N1C[C@H](c2ccc(Br)cc2)[C@@H]1C(=O)Nc1cccc2cccnc12
[IV] C=CC(=O)N1C[C@H](c2ccc(Br)cc2)[C@H]1C(=O)Nc1cccc2cccnc12 [MY-3B]
Incoming: Sort (4 compounds) by % engagement MMS19_C819: min first. List labels; respect the requested ordering.
Outgoing: II, I, IV, III

====

Test target: EPB42_C586 (Homo sapiens, UniProt P16452)
Construct: endogenous in cells; host or cells: 22Rv1
Sequence (P16452 1-691): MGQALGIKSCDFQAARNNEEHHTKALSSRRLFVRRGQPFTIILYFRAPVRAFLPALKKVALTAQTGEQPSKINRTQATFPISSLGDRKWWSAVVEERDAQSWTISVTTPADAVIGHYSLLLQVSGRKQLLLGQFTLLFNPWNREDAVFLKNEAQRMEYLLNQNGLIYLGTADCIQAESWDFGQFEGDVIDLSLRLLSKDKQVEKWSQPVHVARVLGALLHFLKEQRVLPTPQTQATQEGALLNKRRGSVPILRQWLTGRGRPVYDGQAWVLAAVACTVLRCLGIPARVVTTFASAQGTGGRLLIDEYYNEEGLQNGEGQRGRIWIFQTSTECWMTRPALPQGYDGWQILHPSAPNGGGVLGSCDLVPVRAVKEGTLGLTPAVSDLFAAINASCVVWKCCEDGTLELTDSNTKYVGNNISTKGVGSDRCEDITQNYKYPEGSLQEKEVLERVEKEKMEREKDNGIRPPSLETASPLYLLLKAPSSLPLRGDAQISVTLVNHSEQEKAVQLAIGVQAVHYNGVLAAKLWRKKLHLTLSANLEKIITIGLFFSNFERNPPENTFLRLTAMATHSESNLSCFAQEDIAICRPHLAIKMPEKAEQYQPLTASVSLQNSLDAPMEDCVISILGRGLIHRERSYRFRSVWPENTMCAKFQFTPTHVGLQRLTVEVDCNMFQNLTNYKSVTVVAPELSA
Method description: IA-DTB cysteine engagement
Type: binding
Cond: 22Rv1 cells, 20 μM probe, 1 h, relative to DMSO
Endpoint name: % engagement EPB42_C586 (%)

1) C=CC(=O)N1C[C@H](c2ccc(Br)cc2)[C@H]1C(=O)Nc1cccc2cccnc12 [MY-3A] = 66.5

[a] C=CC(=O)N1C[C@H](c2ccc(Br)cc2)[C@@H]1C(=O)Nc1cccc2cccnc12
[b] C=CC(=O)N1C[C@@H](c2ccc(Br)cc2)[C@H]1C(=O)Nc1cccc2cccnc12
Incoming: Could you determine which record has the numerically smaller % engagement EPB42_C586? Candidates: a and b Field: selected label. Fill in the label of the entry you choose.
Outgoing: a
(a: 33.5%, b: 55%)
